Where these numbers come from: the supplement of paper PMC3334620

Let's look at some sequences and their measured PBM E-score.
Target: Sut1 (UniProt P53032)
Sequence: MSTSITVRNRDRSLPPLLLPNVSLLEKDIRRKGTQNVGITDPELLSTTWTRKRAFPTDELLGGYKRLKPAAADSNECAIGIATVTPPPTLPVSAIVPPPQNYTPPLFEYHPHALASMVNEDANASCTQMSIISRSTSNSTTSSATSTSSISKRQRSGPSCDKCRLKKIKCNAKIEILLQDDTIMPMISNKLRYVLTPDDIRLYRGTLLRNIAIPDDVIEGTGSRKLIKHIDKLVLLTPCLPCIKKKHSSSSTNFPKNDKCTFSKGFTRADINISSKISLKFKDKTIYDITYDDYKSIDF
Assay: PBM E-score (8-mer binding enrichment) (E-score (-0.5 to 0.5)); higher = stronger / more preferred TF binding
Settings: protein concentration: 200 nM; construct: GST-full length
Whole data set: some 33,000 sequences, median “E-score (-0.5 to 0.5)” near -0.017, cut for the highest 2% near 0.3. The list comes from a sample in which the highest values are over-represented; it also holds close analogues and randomly drawn sequences.
Returns: the value as a bare number; no unit string appended.

Form field: reported PBM E-score of ATCCTTCG
0.0447

Form field: reported PBM E-score of GGACGGCA
-0.0542

Form field: reported PBM E-score of CTCTCCCC
-0.259

Form field: reported PBM E-score of TATGAGGA
-0.0297

Form field: reported PBM E-score of ACGAGGTG
-0.21

Form field: reported PBM E-score of ACCGGAAT
0.204

Form field: reported PBM E-score of CTGGATTA
0.0735

Form field: reported PBM E-score of TGCTTCAA
0.0485

Form field: reported PBM E-score of ACCGGAGT
0.492

Form field: reported PBM E-score of CACTCCAC
-0.0759

Form field: reported PBM E-score of AAGTGATT
0.237

* * *

Let's look at some sequences and their measured PBM E-score.
Molecular target: Sut1 (UniProt P53032)
Sequence: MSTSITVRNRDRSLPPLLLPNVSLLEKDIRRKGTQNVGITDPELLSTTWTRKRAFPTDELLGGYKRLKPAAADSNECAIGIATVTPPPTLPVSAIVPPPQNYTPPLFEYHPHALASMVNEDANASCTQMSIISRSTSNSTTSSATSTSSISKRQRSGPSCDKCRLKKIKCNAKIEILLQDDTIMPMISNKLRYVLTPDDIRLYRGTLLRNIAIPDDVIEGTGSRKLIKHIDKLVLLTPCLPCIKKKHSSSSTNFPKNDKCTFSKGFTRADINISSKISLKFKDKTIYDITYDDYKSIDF
Assay: PBM E-score (8-mer binding enrichment) (E-score (-0.5 to 0.5)); higher = stronger / more preferred TF binding
Conditions: protein concentration: 200 nM; construct: GST-full length
In all, about 33,000 sequences were measured (“E-score (-0.5 to 0.5)”: median about -0.017, highest 2% from about 0.3 on). This excerpt belongs to a sample that is enriched for the highest values.
Returns: the value as a bare number; no unit string appended.

As a guide, the following entries are already answered.
>  <Item sequence>
AATATATT

>  <Test system>
Sut1 (UniProt P53032)

>  <Experimental value>
0.31

$$$$
>  <Item sequence>
GTCTCCAA

>  <Test system>
Sut1 (UniProt P53032)

>  <Experimental value>
-0.0301

$$$$
>  <Item sequence>
ATCTCCAA

>  <Test system>
Sut1 (UniProt P53032)

>  <Experimental value>
0.158

$$$$

Form field: reported PBM E-score of ATCTCCCG
-0.0416

Form field: reported PBM E-score of CGTCCGCA
-0.177

Form field: reported PBM E-score of AATATTAA
0.263

Form field: reported PBM E-score of ATAGTGGG
-0.0539

Form field: reported PBM E-score of AATATATC
0.322

Form field: reported PBM E-score of AGTCCGCG
0.435

Form field: reported PBM E-score of CGTCCGCC
-0.124

Form field: reported PBM E-score of CAATCAGG
-0.167

Form field: reported PBM E-score of AGCAGGTC
-0.176
